// values below are reported normalized growth
# Protocol: chemical genetic growth profiling, strain panel (AID 1159580);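 further: tested at 20 µM; growth read once vehicle control cultures reached saturation at 30 °C; 1 = growth at the plate median or of vehicle wells; lower values mean less growth of the strain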
# Experimental Setup: S. cerevisiae deletion strains, growth OD, locus YOR069W, strain VPS5, stronger effect = lower value
Screen size: about 5,500 compounds; about 2,000 (36%) were called active. Roughly 18% stayed inconclusive and do not appear here. The list shows a part of the results.
Give the figure by itself; no unit, no explanation.

Compound: COC(=O)/C(C)=C\CC12OC(C)(C)C3CC(C=C4C(=O)c5c(O)c6c(c(CCC(C)(C)Cl)c5OC431)OC1(C)CCC(=C(C)C)C6C1)C2=O (stereo not drawn)
Measured Value: 1.02
//
Compound: CC(C)(Oc1ccc(CCNC(=O)c2ccc(Cl)cc2)cc1)C(=O)O
Measured Value: 1.01
//
Compound: NC12CC3CC(CC(C3)C1)C2
Measured Value: 1.01
//
Compound: OC(CCN1CCCCC1)(c1ccccc1)C1CCCCC1 (stereo not drawn)
Measured Value: 1.01
//
Compound: CC(C)=CCCC1(C)C=Cc2c(O)c3c(c(CC=C(C)C)c2O1)OC12C(=CCCC1C(C)(C)O[C@@]2(C/C=C(\C)C(=O)O)C(=O)O)C3=O (stereo partly drawn)
Measured Value: 0.847

Given CC(C)(C#N)O[C@@H]1O[C@H](CO)[C@@H](O)[C@H](O)[C@H]1O , state its recorded normalized growth.
0.99

Please give the result for CC(C)=CCCC1(C)C=Cc2c(O)c3c(c(CC=C(C)C)c2O1)OC12C(=CC4CC1C(C)(C)OC2(C/C=C(\C)C(N)=O)C4=O)C3=O (stereo not drawn) too.
0.99

Please give the result for CC(C)=CCCC1(C)C=Cc2c(O)c3c(c(CC=C(C)C)c2O1)OC12C(=CC4CC1C(C)(C)OC2(C/C=C(/C)C(=O)O)C4=O)C3=O (stereo not drawn) too.
0.975

----------
# Protocol: chemical genetic growth profiling, strain panel (AID 1159580);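 further: tested at 20 µM; growth read once vehicle control cultures reached saturation at 30 °C; 1 = growth at the plate median or of vehicle wells; lower values mean less growth of the strain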
# Experimental Setup: S. cerevisiae deletion strains, growth OD, locus YJL095W, strain BCK1
In all, about 5,500 compounds went through this assay and about 2,000 (36%) were called active. Roughly 18% stayed inconclusive and do not appear here. Cut-off read from the data, not from the text of the source: active = normalized growth mostly below about 0.91 (no sharp cut-off); inconclusive = no clear call, values can overlap the other calls; inactive = mostly above about 0.92. This is one part of the list.
Hi there, use one of these labels in your reply, thanks! true (1) (active), false (0) (inactive)

Example cases with answers are listed next.
Compound: COC1=C(O)C(=O)c2c(cc3oc(C(C)=O)c(O)c3c2O)C1=O
Assigned Category: false (0)

Compound: COc1cccc2c1C(=O)c1c(O)c3c(c(O)c1C2=O)C[C@@](O)(C(C)=O)C[C@@H]3O[C@H]1C[C@H](N)[C@H](O)[C@H](C)O1
Assigned Category: false (0)

Compound: CCCOc1ccccc1-c1nc2n[nH]nc2c(=O)[nH]1
Assigned Category: false (0)

Would you mind telling me which call this test gave COc1cc(C(=O)O[C@H]2CC[C@@]3(C)[C@@H]4CC[C@H]5[C@]6(O)C[C@H](O)[C@@]7(O)[C@@H](CN8C[C@@H](C)CC[C@H]8[C@@]7(C)O)[C@]6(O)C[C@@]53O[C@]24O)cc(OC)c1OC ?
false (0)

Please give the result for O=C(O)CC(O)(CC(=O)O)C(=O)O too.
false (0)

Please give the result for Brc1ccc2[nH]c3c(c2c1)CCC3 too.
true (1)

Please give the result for Cc1nc(-c2ccccn2)nc(SCc2ccccc2)c1Cl too.
false (0)

Please give the result for CSc1n[nH]c(-c2cc(C(F)(F)F)cc(C(F)(F)F)c2)n1 too.
false (0)

Please give the result for Cc1csc(NC(=O)Nc2ccc(C(F)(F)F)cc2)c1Cl too.
false (0)

Please give the result for O=c1oc2cc(O)ccc2s1 too.
false (0)

Please give the result for S=C(NNC(=S)NC1CC2C=CC1C2)Nc1ccc(Br)c(Cl)c1 (stereo not given) too.
false (0)

Please give the result for C#C[C@]1(OC(C)=O)CCC2C3CCC4=C/C(=N\O)CCC4C3CC[C@@]21CC (stereo not given in full) too.
true (1)

Please give the result for COc1cccc(NC(=S)NC2CC(C)CC(C)(C)C2)c1 (stereo not given) too.
false (0)

Please give the result for Cc1nc(-c2ccccn2)nc(N(C)Cc2ccccc2)c1Cl too.
false (0)

Please give the result for N[C@H](C(=O)O)[C@@H]1CC(Cl)=NO1 too.
true (1)

Please give the result for Cc1csc(NC(=O)Nc2ccc(C(F)(F)F)cc2)c1 too.
false (0)

Please give the result for O=C(c1ccc(Cl)cc1)N(Cc1ccccc1)Cc1cccnc1 too.
false (0)

Please give the result for CCOP(=S)(OCC)Oc1nc(Cl)c(Cl)cc1Cl too.
false (0)

Please give the result for CC(C)(C)C(=O)N(Cc1cccnc1)Cc1ccc(Cl)cc1Cl too.
false (0)

Please give the result for O=C(CNC(=O)c1ccc(Cl)cc1)NO too.
false (0)

Please give the result for O=C(NCC1COc2ccccc2O1)c1ccc(Cl)cc1 (stereo not given) too.
false (0)

Please give the result for CCCc1nc(-c2ccccn2)[nH]c(=O)c1CC1CC1 too.
false (0)

Please give the result for O=C(O)/C=C1\CCCc2ccccc2C1O (stereo not given) too.
false (0)

Please give the result for CN1[C@@H]2CC[C@@H]1CC(O)C2 (stereo not given in full) too.
false (0)

Please give the result for COC(=O)Nc1nc2ccc(S(=O)c3ccccc3)cc2[nH]1 (stereo not given) too.
false (0)
